system: house flies (Musca domestica, L.); test: Fly Bait Test; format: in vivo; set-up: key: C: no control; B: partial control; A: excellent control; conditions: bait, 500 parts per million, twenty-four hours
experimental_readout: Fly

Consider the worked cases shown below.
CC(C[N+](=O)[O-])=NOC(=O)N(C)SC(Cl)(Cl)Cl    A
CSCC(=NOC(=O)N(C)SC(Cl)(Cl)Cl)C(C)(C)C    B
CC(=NOC(=O)N(C)SC(Cl)(Cl)Cl)C(C)(C)[N+](=O)[O-]    A
CN(SC(Cl)(Cl)Cl)C(=O)ON=CC(C)(C)[S+](C)[O-] (centres unmarked)    A

Ask | I'd like to know its Fly. The compound in question is COC(C)(C)C(Cl)=NOC(=O)N(C)SC(Cl)(Cl)Cl
Reply | A

---

System: two-spotted mite (Tetranychus urticae Koch)
Assay: Mite Systemic Test
Type: in vivo
Design: key: C: no control; B: partial control; A: excellent control
Conditions: soil drench, 20 milliliters of test formulation
Protocol: Suspensions of the test compounds were prepared by dissolving one gram of compound in 50 milliliters of acetone in which had been dissolved 0.1 gram (10 percent of the weight of compound) of an alkylphenoxy polyethoxyethanol surfactant, as an emulsifying or dispersing agent. The resulting solution was mixed into 150 milliliters of water to give roughly 200 milliliters of a suspension containing the compound in finely divided form. […]
experimental_readout: Mite (Systemic)

Consider the worked cases shown below.
CC(C[N+](=O)[O-])=NOC(=O)N(C)SC(Cl)(Cl)Cl    C
CC(=NOC(=O)N(C)SC(Cl)(Cl)Cl)C(C)(C)N=[N+]=[N-]    C
CN(SC(Cl)(Cl)Cl)C(=O)ON=CC(C)(C)[N+](=O)[O-]    A
CC(CSC(C)(C)C)=NOC(=O)N(C)SC(Cl)(Cl)Cl    C
CCOC(=O)CCSC(C)=NOC(=O)N(C)SC(Cl)(Cl)Cl    C

Then there is this molecule:
Ask | Report Mite (Systemic) for CSCC(C)=NOC(=O)N(C)SC(Cl)(Cl)Cl tested on two-spotted mite (Tetranychus urticae Koch).
Reply | C
